tested on: Pseudomonas fluorescens HPPD polypeptide (wild-type and mutants); test: Coupled HPPD activity assay: turnover and residual turnover in crude HPPD polypeptide extracts with and without Cmpd. 1; assay type: biochemical; conditions: presence of 100 μM Cmpd. 1; changes in absorbance (OD) at 320 nm in the coupled assay, 30 min
Lab note: anything with Residual turnover at or over 0.07 counts as yes (1); the rest go in no (0).

**Query** Record SEQ ID NO:44 (protein, mutant HPPD polypeptide) MADLYENPMGLMGFEFIEFASPTPGTLEPIFEIMGFTKVATHRSKNVHLYRQGEINLILNNEPNSIASYFAAEHGPSVCGMAFRVKDSQKAYNRALELGAQPIHIDTGPMELNLPAIKGIGGAPLYLIDRFGEGSSIYDIDFVYLEGVERNPVGAGLKVIDHLTHNVYRGRMVYWANFYEKLFNFREARYFDIKGEYTGLTSKAMSAPDGMIKIPLNEESSKGAGQIEEFLMQFNGEGIQHVAFLTDDLVKTWDALKKIGMRFMTAPGDEYYEMLEGRLPDHGEPVDQLQARGILLDGSSVEGDKRLLLQIFSEQLMGPVFFEFIQRKGDDGFGPHSFKVLFESMERDQVRRGVLTAD ; criterion: Residual turnover no lower than 0.07. Met?
**Result** yes (1)

**Query** Record SEQ ID NO:53 (protein, mutant HPPD polypeptide) MADLYENPMGLMGFEFIEFASPTPGTLEPIFEIMGFTKVATHRSKNVHLYRQGEINLILNNEPNSIASYFAAEHGPSVCGMAFRVKDSQKAYNRALELGAQPIHIDTGPMELNLPAIKGIGGAPLYLIDRFGEGSSIYDIDFVYLEGVERNPVGAGLKVIDHLTHNVYRGRMVYWANFYEKLFNFREARYFDIKGEYTGLTSKAMSAPDGMIRIPLNEESSKGAGQIEEFLMQFNGEGIQHVAFLTDDLVKTWDALKKIGMRFLTAPGDEYYEMLEGRLPDHGEPVDQLQARGILLDGSSVEGDKRLLLQIFSETLMGPVFFEFIQRKGDDGFGPHSFKVLFEQMERDQVRRGVLTAD ; criterion: Residual turnover no lower than 0.07. Met?
**Result** yes (1)

**Query** Record SEQ ID NO:65 (protein, mutant HPPD polypeptide) MADLYENPMGLMGFEFIEFASPTPGTLEPIFEIMGFTKVATHRSKNVHLYRQGEINLILNNEPNSIASYFAAEHGPSVCGMAFRVKDSQKAYNRALELGAQPIHIDTGPMELNLPAIKGIGGAPLYLIDRFGEGSSIYDIDFVYLEGVERNPVGAGLKVIDHLTHNVYRGRMVYWANFYEKLFNFREARYFDIKGEYTGLTSKAMSAPDGMIRIPLNEESSKGAGQIEEFLMQFNGEGIQHVAFLTDDLVKTWDALKKIGMRFLTAPGDEYYEMLEGRLPDHGEPVDQLQARGILLDGSSVEGDKRLLLQIFSEKLMGPVFFEFIQRKGDDGFGPDSFKVLFEQIERDQVRRGVLTAD ; criterion: Residual turnover no lower than 0.07. Met?
**Result** yes (1)

**Query** Record SEQ ID NO:31 (protein, mutant HPPD polypeptide) MADLYENPMGLMGFEFIEFASPTPGTLEPIFEIMGFTKVATHRSKNVHLYRQGEINLILNNEPNSIASYFAAEHGPSVCGMAFRVKDSQKAYNRALELGAQPIHIDTGPMELNLPAIKGIGGAPLYLIDRFGEGSSIYDIDFVYLEGVERNPVGAGLKVIDHLTHNVYRGRMVYWANFYEKLFNFREARYFDIKGEYTGLTSKAMSAPDGMIRIPLNEESSKGAGQIEEFLMQFNGEGIQHVAFLTDDLVKTWDALKKIGMRFMTAPGDEYYEMLEGRLPDHGEPVDQLQARGILLDGSSVEGDKRLLLQIFSEKLMGPVFFEFIQRKGDDGFGPHSFKVLFESMERDQVRRGVLTAD ; criterion: Residual turnover no lower than 0.07. Met?
**Result** yes (1)

**Query** Record SEQ ID NO:7 (protein, mutant HPPD polypeptide) MADLYENPMGLMGFEFIEFASPTPGTLEPIFEIMGFTKVATHRSKNVHLYRQGEINLILNNEPNSIASYFAAEHGPSVCGMAFRVKDSQKAYNRALELGAQPIHIDTGPMELNLPAIKGIGGAPLYLIDRFGEGSSIYDIDFVYLEGVERNPVGAGLKVIDHLTHNVYRGRMVYWANFYEKLFNFREARYFDIKGEYTGLTSKAMSAPDGMIRIPLNEESSKGAGQIEEFLMQFNGEGIQHVAFLTDDLVKTWDALKKIGMRFLTAPGDEYYEMLEGRLPDHGEPVDQLQARGILLDGSSVEGDKRLLLQIFSEKLMGPVFFEFIQRKGDDGFGPDSFKVLFESIERDQVRRGVLTAD ; criterion: Residual turnover no lower than 0.07. Met?
**Result** yes (1)

**Query** Record SEQ ID NO:13 (protein, mutant HPPD polypeptide) MADLYENPMGLMGFEFIEFASPTPGTLEPIFEIMGFTKVATHRSKNVHLYRQGEINLILNNEPNSIASYFAAEHGPSVCGMAFRVKDSQKAYNRALELGAQPIHIDTGPMELNLPAIKGIGGAPLYLIDRFGEGSSIYDIDFVYLEGVERNPVGAGLKVIDHLTHNVYRGRMVYWANFYEKLFNFREARYFDIKGEYTGLTSKAMSAPDGMIRIPLNEESSKGAGQIEEFLMQFNGEGIQHVAFLTDDLVKTWDALKKIGMRFMTAPGDEYYEMLEGRLPDHGEPVDQLQARGILLDGSSVEGDKRLLLQIFSETLMGPVFFEFIQRKGDDGFGPDSFKVLFEQIERDQVRRGVLTAD ; criterion: Residual turnover no lower than 0.07. Met?
**Result** no (0)
